Sourced from patent US20050096347A1

Molecular target: Atypical-β/β3-AR (Rattus norvegicus, UniProt P26255)
Sequence (P26255 whole entry): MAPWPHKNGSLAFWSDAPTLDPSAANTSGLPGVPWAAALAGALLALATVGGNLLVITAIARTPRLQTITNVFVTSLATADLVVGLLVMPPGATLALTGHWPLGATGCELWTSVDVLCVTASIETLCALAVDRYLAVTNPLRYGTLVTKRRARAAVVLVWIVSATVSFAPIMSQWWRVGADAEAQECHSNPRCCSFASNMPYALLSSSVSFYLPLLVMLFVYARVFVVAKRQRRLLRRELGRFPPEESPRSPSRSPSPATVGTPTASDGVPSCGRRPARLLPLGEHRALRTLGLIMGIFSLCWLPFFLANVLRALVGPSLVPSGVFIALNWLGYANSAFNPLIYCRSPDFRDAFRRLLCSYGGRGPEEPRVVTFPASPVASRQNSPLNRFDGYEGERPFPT
Assay: Relaxation of carbachol-precontracted rat esophageal smooth muscle
QUANTITY KIND: EC50 (nM)
Give just the numeric value; nM need not be written.

Entry Br.CC(=O)Nc1c(I)cc(CC2NCCc3cc(O)c(O)cc32)cc1I (stereo not shown) [Compound 15, Hydrobromide] under Atypical-β/β3-AR (Rattus norvegicus, UniProt P26255) had EC50 of 2.09

---

Target: human β2 Adrenoreceptor (Homo sapiens)
Construct: expressed in transfected cells
Assay: Radioligand competition binding, human β2 adrenoreceptor expressed in CHO cells ([125I]ICYP)
Conditions: relative to cmpd. 1 (TMQ); PR = antilog [pKi(drug) − pKi(TMQ)]
QUANTITY KIND: P.R. (potency ratio), Human β2 Adrenoreceptor CHO
Answer with the value's number alone.

I.O=C(Nc1ccc(CC2NCCc3cc(O)c(O)cc32)cc1I)c1ccccc1 (centres unmarked) [Compound 26b] | 22
CC(=O)Nc1ccc(CC2NCCc3cc(O)c(O)cc32)cc1I.I (centres unmarked) [Compound 26a] | 5.6
Cl.Cl.Nc1c(I)cc(CC2NCCc3cc(O)c(O)cc32)cc1I (centres unmarked) [Compound 21c] | 28
Cl.Oc1cc2c(cc1O)C(Cc1cc(C(F)(F)F)cc(C(F)(F)F)c1)NCC2 (centres unmarked) | 0.01

Continue with the compound presented below.
P.R. (potency ratio), Human β2 Adrenoreceptor CHO in this record for Br.Oc1cc2c(cc1O)C(Cc1cc(I)c(I)c(I)c1)NCC2 (centres unmarked) [Compound 21b] : 29

---

Biological target: human β2 Adrenoreceptor (Homo sapiens, UniProt P07550)
Construct: expressed in transfected cells
Sequence (P07550 whole entry): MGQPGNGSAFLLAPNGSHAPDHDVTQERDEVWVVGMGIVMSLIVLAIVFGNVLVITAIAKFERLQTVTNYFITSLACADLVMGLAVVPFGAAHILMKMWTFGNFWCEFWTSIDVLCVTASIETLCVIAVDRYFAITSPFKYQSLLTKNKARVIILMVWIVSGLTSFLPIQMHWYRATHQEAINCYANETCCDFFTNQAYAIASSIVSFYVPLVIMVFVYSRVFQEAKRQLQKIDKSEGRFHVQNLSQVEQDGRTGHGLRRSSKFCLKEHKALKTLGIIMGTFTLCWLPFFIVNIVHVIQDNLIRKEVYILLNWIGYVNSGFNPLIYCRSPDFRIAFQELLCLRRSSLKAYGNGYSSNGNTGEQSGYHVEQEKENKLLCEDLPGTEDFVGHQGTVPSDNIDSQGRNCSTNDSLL
Test: Radioligand competition binding, human β2 adrenoreceptor expressed in CHO cells ([125I]ICYP)
Conditions: [125I]ICYP as radioligand; N = 4-9
# maps each entry to its pKi ± SEM, Human β2 Adrenoreceptor CHO
Answer with the value's number alone.

Examples with their reported pKi ± SEM, Human β2 Adrenoreceptor CHO follow.
Br.CC(=O)Nc1c(I)cc(CC2NCCc3cc(O)c(O)cc32)cc1I (stereo not shown) [Compound 15] | 8.06
Cl.Cl.Nc1c(I)cc(CC2NCCc3cc(O)c(O)cc32)cc1I (stereo not shown) [Compound 21c] | 8.81

Entry CC(=O)Nc1ccc(CC2NCCc3cc(O)c(O)cc32)cc1I.I (stereo not shown) [Compound 26a] under human β2 Adrenoreceptor (Homo sapiens, UniProt P07550) had pKi ± SEM, Human β2 Adrenoreceptor CHO of 8.11

Entry Cl.Oc1cc2c(cc1O)C(Cc1cc(C(F)(F)F)cc(C(F)(F)F)c1)NCC2 (stereo not shown) [Compound 27] under human β2 Adrenoreceptor (Homo sapiens, UniProt P07550) had pKi ± SEM, Human β2 Adrenoreceptor CHO of 5.36

Entry Br.Oc1cc2c(cc1O)C(Cc1cc(I)c(I)c(I)c1)NCC2 (stereo not shown) [Compound 21b] under human β2 Adrenoreceptor (Homo sapiens, UniProt P07550) had pKi ± SEM, Human β2 Adrenoreceptor CHO of 8.82

Entry I.O=C(Nc1ccc(CC2NCCc3cc(O)c(O)cc32)cc1I)c1ccccc1 (stereo not shown) [Compound 26b] under human β2 Adrenoreceptor (Homo sapiens, UniProt P07550) had pKi ± SEM, Human β2 Adrenoreceptor CHO of 8.70

Entry Br.Oc1cc2c(cc1O)C(Cc1cc(I)c(O)c(I)c1)NCC2 (stereo not shown) [Compound 18] under human β2 Adrenoreceptor (Homo sapiens, UniProt P07550) had pKi ± SEM, Human β2 Adrenoreceptor CHO of 7.93

---

# maps each entry to its EC50
Molecular target: rat-β3-AR (Rattus norvegicus, UniProt P26255)
Construct: expressed in transfected cells; host or cells: CHO cells
Sequence (P26255 whole entry): as the sequence (P26255 whole entry) above
Assay: cAMP accumulation in CHO cells expressing rat β3-AR
Format: cell-based
Details: CHO cells; mean ± SEM (n in parentheses); read-out: pKact (−log EC50) for cAMP accumulation, rat-β3-AR (converted)
Give the number first and the unit second.

Oc1cc2c(cc1O)C(Cc1cc(I)cc(I)c1)NCC2 (stereo not shown) | 1.82 nM
Br.CC(=O)Nc1c(I)cc(CC2NCCc3cc(O)c(O)cc32)cc1I (stereo not shown) [Compound 15, Hydrobromide] | 0.457 nM
COc1cc(CC2NCCc3cc4c(cc32)OCO4)cc(OC)c1OC (stereo not shown) | 1200 nM

Continue with the compound presented below.
Entry COc1c(I)cc(CC2NCCc3cc(O)c(O)cc32)cc1I (stereo not shown) [Compound 2, reference compound] under rat-β3-AR (Rattus norvegicus, UniProt P26255) had EC50 of 0.398 nM
